Test: chemical genetic growth profiling, strain panel (AID 1159580);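 further: tested at 20 µM; growth read once vehicle control cultures reached saturation at 30 °C; 1 = growth at the plate median or of vehicle wells; lower values mean less growth of the strain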
Conditions: S. cerevisiae deletion strains, growth OD, locus YLR221C, strain rsa3, hits give low values
In all, about 5,500 compounds went through this assay and about 2,000 (36%) were called active. Roughly 18% stayed inconclusive and do not appear here. This is one part of the list.
parameter_measured: normalized growth
# answer = number (no unit)

Worked set:
compound | normalized growth
COc1ccc([C@H]2COc3c(ccc(O)c3OC)C2)c(OC)c1O | 0.993
O=C(O)[C@H](O)[C@@](O)(Cc1ccc(O)cc1)C(=O)O | 1.03
COc1cnc(NS(=O)(=O)c2ccc(N)cc2)nc1 | 0.988
CC[C@H]1CN2CCc3cc(OC)c(OC)cc3C2C[C@@H]1CC1NCCc2cc(OC)c(OC)cc21 (stereo not given in full) | 0.984

Now take the following compound into account.
Prompt: Bench note: what normalized growth did CO[C@H]1C[C@H](O[C@H]2[C@H](C)[C@@H](OC3O[C@H](C)C[C@H](N(C)C)[C@H]3OC(C)=O)[C@@H](C)C[C@]3(CO3)C(=O)[C@H](C)[C@@H](OC(C)=O)[C@@H](C)[C@@H](C)OC(=O)[C@@H]2C)O[C@@H](C)[C@@H]1OC(C)=O (stereo not given in full) show?
Completion: 0.99

---

Test: chemical genetic growth profiling, strain panel (AID 1159580)
Settings: S. cerevisiae deletion strains, growth OD, locus YGL248W, strain PDE1, hits give low values
Hit rate of the full screen: of about 5,500 compounds, about 2,000 (36%) were called active. About 18% were inconclusive and are not listed. This is one part of the list. Where a SMILES comes first, the peptide text is derived from it. Bridges are numbered along the chain shown (N, C = ends). Side-chain parts run from the residue outwards. [ ]: non-standard residue; d: D form. The star is where a group is joined. Octanoyl(6-Me) = CCC(C)CCCCC(=O)*; X1 = CCC(C)C(N)C1=NC(C(=O)*)CS1; Orn = NCCC[CH](N)C(=O)O; Dab = NCC[CH](N)C(=O)O
Reported normalized growth values are given for each entry in this list.
# answer = number (no unit)

Worked set:
molecule | reported_measurement
COc1ccc2c(=O)ccoc2c1 | 1.02
CC1(C)S[C@@H]2[C@H](NC(=O)Cc3ccccc3)C(=O)N2[C@H]1C(=O)O | 1.01
CN(C)CCc1c[nH]c2ccc(CS(=O)(=O)N3CCCC3)cc12 | 0.993
CCC(C)C(N)C1=NC(C(=O)NC(CC(C)C)C(=O)NC(CCC(=O)O)C(=O)NC(C(=O)NCCCCC2NC(=O)C(CC(N)=O)NC(=O)C(CC(=O)O)NC(=O)C(Cc3cnc[nH]3)NC(=O)C(Cc3ccccc3)NC(=O)C(C(C)CC)NC(=O)C(CCCN)NC2=O)C(C)CC)CS1 (stereo not drawn) (cyclo(DNK([Ile-Glu-Leu-X1])[Orn]IFH); configuration not given here) | 1
CC(=O)c1cc2c(cc1O)OC(C)(C)C=C2 | 0.997

Prompt: Bench note: what normalized growth did "O=C(CCBr)N1CCN(C(=O)CCBr)CC1" show?
Completion: 1

Prompt: Bench note: what normalized growth did "COc1ccc([C@H]2COc3c(ccc(O)c3OC)C2)c(OC)c1O" show?
Completion: 0.985

Prompt: Bench note: what normalized growth did "COc1ccc2c(c1OC)OC[C@@H](c1ccc(OC)c(OC)c1OC)C2" show?
Completion: 1.01

Prompt: Bench note: what normalized growth did "Cc1onc(-c2c(Cl)cccc2Cl)c1C(=O)N[C@@H]1C(=O)N2[C@@H]1SC(C)(C)[C@@H]2C(=O)O" show?
Completion: 1.01

Prompt: Bench note: what normalized growth did CCC(C)CCCCC(=O)NC(CCN)C(=O)NC(C(=O)NC(CCN)C(=O)NC1CCNC(=O)C(C(C)O)NC(=O)C(CCN)NC(=O)C(CCN)NC(=O)C(CC(C)C)NC(=O)C(Cc2ccccc2)NC(=O)C(CCN)NC1=O)C(C)O (centres undefined) ({Octanoyl(6-Me)}-[Dab]T[Dab][Dab][Dab]FL[Dab][Dab]T; lactam 4-C; configuration not given here) show?
Completion: 1.01

Prompt: Bench note: what normalized growth did COc1cc2c(cc1O)CCNC2C (centres undefined) show?
Completion: 0.988

Prompt: Bench note: what normalized growth did "CO[C@@]1(NC(=O)Cc2cccs2)C(=O)N2C(C(=O)O)=C(COC(N)=O)CS[C@@H]21" show?
Completion: 1.01

Prompt: Bench note: what normalized growth did O=c1[nH]cnc2c1ncn2C1O[C@H](CO)[C@@H](O)[C@H]1O (some centres undefined) show?
Completion: 1.01

Prompt: Bench note: what normalized growth did "NC(=O)NO" show?
Completion: 1

---

Assay: chemical genetic growth profiling, strain panel (AID 1159580)
Conditions: S. cerevisiae deletion strains, growth OD, locus YNL222W, strain SSU72, hits give low values
The campaign covered roughly 5,500 compounds. About 2,000 (36%) were called active. About 18% were inconclusive and are not listed. The list shows a part of the results.
Reported normalized growth values are given for each entry in this list.
# answer = number (no unit)

Worked set:
smiles_repr | normalized growth
CC(=O)c1ccccc1C(=O)c1ccc(C(C)(C)C)cc1 | 0.966
Cn1nc(-c2ccccc2)c(O)c(N=Nc2ccccc2)c1=O | 0.966
Cc1ccc2nc(-c3ccc([N+](=O)[O-])o3)oc(=O)c2c1 | 0.101

Prompt: Bench note: what normalized growth did "O=c1c(-c2ccccc2)c(O)c2cccc3c4c(n1c23)CCCC4" show?
Completion: 0.939

Prompt: Bench note: what normalized growth did "FC(F)(F)c1cc(-c2ccc(Cl)cc2)n[nH]1" show?
Completion: 0.91

Prompt: Bench note: what normalized growth did "O=C(c1cc2c(s1)-c1ccccc1CC2)N1CCN(Cc2ccccc2)CC1" show?
Completion: 1.01

---

Assay: chemical genetic growth profiling, strain panel (AID 1159580);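 further: tested at 20 µM; growth read once vehicle control cultures reached saturation at 30 °C; 1 = growth at the plate median or of vehicle wells; lower values mean less growth of the strain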
Details: S. cerevisiae deletion strains, growth OD, locus YLR418C, strain cdc73, hits give low values
Screen size: about 5,500 compounds; about 2,000 (36%) were called active. About 18% were inconclusive and are not listed. This is one part of the list.
Reported normalized growth values are given for each entry in this list.
# answer = number (no unit)

Prompt: Bench note: what normalized growth did "COc1cc(/C=C/C=O)cc(OC)c1OC" show?
Completion: 1.02

Prompt: Bench note: what normalized growth did "NC(=O)N1c2ccccc2C=Cc2ccccc21" show?
Completion: 0.959

Prompt: Bench note: what normalized growth did O=c1[nH]cnc2c1ncn2C1O[C@H](CO)[C@@H](O)[C@H]1O (stereo partly specified) show?
Completion: 1.01

Prompt: Bench note: what normalized growth did C#CC1(O)CCC2C3CCC4=CC(=O)CCC4(C)C3CCC21C (stereo unspecified) show?
Completion: 0.921

Prompt: Bench note: what normalized growth did C[C@]12CCC(=O)C=C1CCC1C2[C@@H](O)C[C@@]2(C)C1CC[C@]2(O)C(=O)COC(=O)CCC(=O)O (stereo partly specified) show?
Completion: 0.988

Prompt: Bench note: what normalized growth did "NCCc1c[nH]c2ccccc12" show?
Completion: 0.99

---

Assay: chemical genetic growth profiling, strain panel (AID 1159580);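 further: tested at 20 µM; growth read once vehicle control cultures reached saturation at 30 °C; 1 = growth at the plate median or of vehicle wells; lower values mean less growth of the strain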
Settings: S. cerevisiae deletion strains, growth OD, locus YLR221C, strain rsa3, hits give low values
The whole screen tested about 5,500 compounds, of which about 2,000 (36%) were called active. About 18% were inconclusive and are not listed. Some of the results follow.
parameter_measured: normalized growth
# answer = number (no unit)

molecule | normalized growth
Cc1cc(C(C)(C)C)c(O)c(C)c1CC1=NCCN1 | 1.01
COc1cc2cc3c4cc(OC)c(OC)cc4cc[n+]3c(C)c2cc1OC | 1.02
CC(=O)CC1CCCCN1 (stereo unspecified) | 1.03
CN1CCN(CCC=C2c3ccccc3Sc3ccc(S(=O)(=O)N(C)C)cc32)CC1 | 0.979

Prompt: Bench note: what normalized growth did "COc1cc(NS(=O)(=O)c2ccc(N)cc2)ncn1" show?
Completion: 0.985

Prompt: Bench note: what normalized growth did C1CCC(C(CC2CCCCN2)C2CCCCC2)CC1 (stereo unspecified) show?
Completion: 0.98

---

Assay: chemical genetic growth profiling, strain panel (AID 1159580);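 further: tested at 20 µM; growth read once vehicle control cultures reached saturation at 30 °C; 1 = growth at the plate median or of vehicle wells; lower values mean less growth of the strain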
Details: S. cerevisiae deletion strains, growth OD, locus YOR184W, strain ser1
In all, about 5,500 compounds went through this assay and about 2,000 (36%) were called active. Inconclusive results (about 18%) are left out. Rule as the data show it: active = normalized growth mostly below about 0.91 (no sharp cut-off); inconclusive = no clear call, values can overlap the other calls; inactive = mostly above about 0.92. The list shows a part of the results.
Give your call using only these classes: true (1) (active), false (0) (inactive)

Worked examples, 2 compounds total:
compound | assigned_label
COC1(C)CCC2OC2(C)CCC2C1CC2(C)C (stereo not drawn) | false (0)
CC(=O)O[C@H]1CC[C@]2(C)C3CC(=O)[C@]4(C)C(C(C)=O)=CCC4C3CC[C@H]2C1 (stereo partly drawn) | false (0)

Prompt: Called result for "CC(=O)NO"
Completion: false (0)

Prompt: Called result for "CCOC([O-])=Nc1c[n+](N2CCOCC2)no1"
Completion: false (0)
